Measured values drawn from patent US20250144067A1 for this set.

System: NCI-H292 lung cancer cells
experimental_details: FDA drug screening, complete media vs cholesterol-free media with simvastatin (TABLE 2)
Type: cell-based, human
measurement_setup: complete media vs cholesterol-free media + simvastatin (0.04 μM); >0 enhanced anti-cancer activity, about 0 neutral, <0 antagonist
Where a name gives a salt, the structure may show the parent alone.
measured_attribute: Difference
Give bare numbers.

INSERT INTO results (compound, value_measured) VALUES
  ('N#CC[C@H](C1CCCC1)n1cc(-c2ncnc3[nH]ccc23)cn1', '−0.08'),
  ('O=c1[nH]c(=O)n([C@H]2C[C@H](O)[C@@H](CO)O2)cc1I', '−0.16'),
  ('Nc1nc(CC(=O)Nc2ccc(CCNC[C@H](O)c3ccccc3)cc2)cs1', '−0.13'),
  ('Clc1ccc(C(OCCN2CCCCC2)c2ccccc2)cc1 (centres unmarked) [Cloperastine (hydrochloride)]', '−0.10'),
  ('CC1(C)CCC(CN2CCN(c3ccc(C(=O)NS(=O)(=O)c4ccc(NCC5CCOCC5)c([N+](=O)[O-])c4)c(Oc4cnc5[nH]ccc5c4)c3)CC2)=C(c2ccc(Cl)cc2)C1', '−0.11');

For each listed entry, give its Difference.
1. NC(=O)c1nc(F)c[nH]c1=O
2. CCCCCCCCc1ccc(CCC(N)(CO)CO)cc1
3. C[C@H]1C[C@H]2[C@@H]3CCC4=CC(=O)C=C[C@]4(C)[C@@]3(F)[C@@H](O)C[C@]2(C)[C@@]1(O)C(=O)CO

−0.24
−0.14
−0.15
